Test system: Streptococcus pneumoniae
Assay: Antibacterial activity against penicillin susceptible Streptococcus pneumoniae clinical isolate 20-1 assessed as inhibition of bacterial growth incubated for 24 hrs by CLSI protocol based broth microdilution method
Assay type: functional
MIC listing for selected molecules.

Worked cases, MIC given:
CN[C@H](CC(C)C)C(=O)N[C@H]1C(=O)N[C@@H](CC(N)=O)C(=O)N[C@H]2C(=O)N[C@H]3C(=O)N[C@H](C(=O)N[C@H](C(=O)O)c4cc(O)cc(O)c4-c4cc3ccc4O)[C@H](O)c3ccc(c(Cl)c3)Oc3cc2cc(c3O[C@@H]2O[C@H](CO)[C@@H](O)[C@H](O)[C@H]2O[C@H]2C[C@](C)(NCc3ccc(Oc4cc(Cl)cc(Cl)c4)cc3)[C@H](O)[C@H](C)O2)Oc2ccc(cc2Cl)[C@H]1O: ≤ 0.015 mg/L
CN[C@H](CC(C)C)C(=O)N[C@H]1C(=O)N[C@@H](CC(N)=O)C(=O)N[C@H]2C(=O)N[C@H]3C(=O)N[C@H](C(=O)N[C@H](C(=O)NCCCc4cn(-c5ccc(OC(F)F)cc5)nn4)c4cc(O)cc(O)c4-c4cc3ccc4O)[C@H](O)c3ccc(c(Cl)c3)Oc3cc2cc(c3O[C@@H]2O[C@H](CO)[C@@H](O)[C@H](O)[C@H]2O[C@H]2C[C@](C)(N)[C@H](O)[C@H](C)O2)Oc2ccc(cc2Cl)[C@H]1O: ≤ 0.015 mg/L
CN[C@H](CC(C)C)C(=O)N[C@H]1C(=O)N[C@@H](CC(N)=O)C(=O)N[C@H]2C(=O)N[C@H]3C(=O)N[C@H](C(=O)N[C@H](C(=O)O)c4cc(O)cc(O)c4-c4cc3ccc4O)[C@H](O)c3ccc(c(Cl)c3)Oc3cc2cc(c3O[C@@H]2O[C@H](CO)[C@@H](O)[C@H](O)[C@H]2O[C@H]2C[C@](C)(NCc3ccc(C#Cc4ccccc4)cc3)[C@H](O)[C@H](C)O2)Oc2ccc(cc2Cl)[C@H]1O: ≤ 0.015 mg/L
CN[C@H](CC(C)C)C(=O)N[C@H]1C(=O)N[C@@H](CC(N)=O)C(=O)N[C@H]2C(=O)N[C@H]3C(=O)N[C@H](C(=O)N[C@H](C(=O)O)c4cc(O)cc(O)c4-c4cc3ccc4O)[C@H](O)c3ccc(c(Cl)c3)Oc3cc2cc(c3O[C@@H]2O[C@H](CO)[C@@H](O)[C@H](O)[C@H]2O[C@H]2C[C@](C)(NCc3ccc(Oc4ccccc4)cc3)[C@H](O)[C@H](C)O2)Oc2ccc(cc2Cl)[C@H]1O: ≤ 0.03 mg/L

Consider the additional molecule presented here.
Req: Looking for the measured MIC of CN[C@H](CC(C)C)C(=O)N[C@H]1C(=O)N[C@@H](CC(N)=O)C(=O)N[C@H]2C(=O)N[C@H]3C(=O)N[C@H](C(=O)N[C@H](C(=O)O)c4cc(O)cc(O)c4-c4cc3ccc4O)[C@H](O)c3ccc(c(Cl)c3)Oc3cc2cc(c3O[C@@H]2O[C@H](CO)[C@@H](O)[C@H](O)[C@H]2O[C@H]2C[C@](C)(N)[C@H](O)[C@H](C)O2)Oc2ccc(cc2Cl)[C@H]1O , can you help?
Resp: 0.25 mg/L
